Hey, just so you know, these numbers are from ChEMBL document CHEMBL2311355.

# Tested on: Trypanosoma brucei brucei
# TEST_PROTOCOL: Trypanocidal activity against bloodstream form of Trypanosoma brucei brucei 427 after 72 hrs by Alamar blue assay
# Format: functional, organism-based
# DETAILS: Trypanosoma brucei, 427, 72 h
// reported EC50 for each item listed
MEASURED_ATTRIBUTE: EC50 (nM)

In [3]: df
Out[3]:
                                 mol_smiles  measured_attribute  limit_qualifier  recorded_value
0                     O=C(Nc1ccccc1)c1ccco1                EC50                >           20000
1          CCOC(=O)c1cc(CC)sc1NC(=O)c1ccco1                EC50                >           20000
2  COc1ccc(NC(=O)c2ccc([N+](=O)[O-])o2)cc1C(F)(F)F                EC50                =             7.8
3  CCOC(=O)c1cc(CC)sc1NC(=O)c1ccc([N+](=O)[O-])o1                EC50                =            31.3
4  C=CCOc1ccc(NC(=O)c2ccc([N+](=O)[O-])o2)cc1                EC50                =            7.73
5       O=C(Nc1ccccc1)c1ccc([N+](=O)[O-])o1                EC50                =            28.1
6   O=C(Nc1ccc(Cl)cc1)c1ccc([N+](=O)[O-])o1                EC50                =             412
7  COC(=O)c1ccc(NC(=O)c2ccc([N+](=O)[O-])o2)cc1                EC50                =             680
8                      CCc1cc(C(N)=O)c(N)s1                EC50                =           32600
9  CCc1cc(C(N)=O)c(NC(=O)c2ccc([N+](=O)[O-])cc2)s1                EC50                >           20000
